The values you see were collected from paper PMC2756588.

Target: T1, Fus1, P11710
T1 sequence (P11710 432-512, looked up): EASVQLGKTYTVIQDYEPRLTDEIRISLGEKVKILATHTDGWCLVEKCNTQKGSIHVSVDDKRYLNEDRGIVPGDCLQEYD
Experiment: SPOT array
Conditions: median of control spots 1200
parameter: SPOT intensity

MTKTPETSPPKRPMG	0
GATNNAPTLPKRKNP	2
SRQAIPPPVPNRPGG	1

Below is a list of binders. For each, state its recorded SPOT intensity.
1. VPKEPAPAPPPEPDM
2. PSTMDFPKLPSFQNS

1: 1; 2: 0

Below is a list of binders. For each, state its recorded SPOT intensity.
1. HVRRSILALPLGVLL
2. DFTLPPPPPPPGLDE

[16, 0]
